Target: PDE8A1 (Homo sapiens, UniProt O60658)
Sequence (O60658 480-820): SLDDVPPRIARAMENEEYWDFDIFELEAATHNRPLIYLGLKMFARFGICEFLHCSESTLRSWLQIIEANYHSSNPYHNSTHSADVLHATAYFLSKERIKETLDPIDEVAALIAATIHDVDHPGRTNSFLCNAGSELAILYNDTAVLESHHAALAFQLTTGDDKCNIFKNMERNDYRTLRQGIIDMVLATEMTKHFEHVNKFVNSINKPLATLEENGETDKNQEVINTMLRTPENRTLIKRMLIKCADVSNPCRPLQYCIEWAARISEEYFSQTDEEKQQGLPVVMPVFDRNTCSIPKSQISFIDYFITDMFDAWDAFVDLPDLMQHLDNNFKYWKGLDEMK
attribute measured: IC50 (µM)

compound="OCCN(CCO)c1nc(N2CCCCC2)c2nc(N(CCO)CCO)nc(N3CCCCC3)c2n1 [dipyridamole]" readout_units=µM meas_value=6

###

Biological target: PDE8A1 (Homo sapiens, UniProt O60658, Y748F)
Sequence (O60658 480-820 Y748F): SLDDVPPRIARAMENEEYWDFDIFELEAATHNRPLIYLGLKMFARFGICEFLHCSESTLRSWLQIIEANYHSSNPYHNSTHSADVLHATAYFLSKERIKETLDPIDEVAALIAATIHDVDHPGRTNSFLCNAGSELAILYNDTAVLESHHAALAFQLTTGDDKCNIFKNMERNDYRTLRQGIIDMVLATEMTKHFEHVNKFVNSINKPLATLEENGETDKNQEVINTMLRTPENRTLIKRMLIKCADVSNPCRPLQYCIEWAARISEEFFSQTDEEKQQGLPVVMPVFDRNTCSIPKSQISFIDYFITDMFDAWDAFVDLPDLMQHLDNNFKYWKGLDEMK
Assay: 3H-cAMP hydrolysis assay, IC50
pIC50: −log10 of the molar value.
attribute measured: pIC50

compound="OCCN(CCO)c1nc(N2CCCCC2)c2nc(N(CCO)CCO)nc(N3CCCCC3)c2n1 [dipyridamole]" system="PDE8A1 (Homo sapiens, UniProt O60658, Y748F)" attribute_measured=pIC50 meas_value=5.39
